Test system: HCT116 (p53+/+)
Assay: MTS anti-proliferative assay, HCT116 (p53+/+)
Assay type: cell-based, human
Conditions: 72 h incubation, mean ± SD
pIC50: −log10 of the molar value.
Endpoint: pIC50

Use these answered entries as a reference point.
Compound	pIC50
CC(=O)Oc1cccc(C=Cc2ccc3cccc(O)c3n2)c1 [4b]	5.10
CC(=O)Oc1ccccc1C=Cc1ccc2cccc(OC(C)=O)c2n1 [2b]	5.09

I = Oc1ccccc1C=Cc1ccc2ccccc2n1 [1a]
II = CC(=O)Oc1ccccc1C=Cc1ccc2cccc(O)c2n1 [3b]
Incoming: Two entries are listed, I and II . Which one carries the higher pIC50? Identify your selection by its label.
Outgoing: II
(II: 5.14, I: 4.76)

----------
System: HCT116 (p53-/-)
Test: MTS anti-proliferative assay, HCT116 (p53-/-)
Assay type: cell-based, human
Conditions: MTS, 72 h incubation, mean ± SD
pIC50: −log10 of the molar value.
Measured pIC50, listed per entry for reference.

Use these answered entries as a reference point.
Compound	Test System	pIC50
CC(=O)Oc1ccc(C=Cc2ccc3cccc(OC(C)=O)c3n2)c(OC(C)=O)c1 [8b]	HCT116 (p53-/-)	< 4.60
Oc1cc(O)c(C=Cc2ccc3cccc(O)c3n2)c(O)c1 [9b]	HCT116 (p53-/-)	< 4.60

Incoming: Report pIC50 on HCT116 (p53-/-) for this entry: CCCCOc1ccc(C=Cc2ccc3ccccc3n2)cc1 [3a]
Outgoing: < 4.60

----------
System: GM 07492
Assay: MTS cytotoxicity assay, normal fibroblasts GM 07492
Assay type: cell-based
Settings: Fibroblast, 72 h incubation, normal human fibroblasts, mean ± SD
Endpoint: pIC50
Recall that pIC50 is obtained by taking minus log10 of the concentration measured in molar.

Sample Smiles	Test System	Endpoint	Obs Value
COc1cccc2c1C(=O)c1c(O)c3c(c(O)c1C2=O)C[C@@](O)(C(=O)CO)C[C@@H]3O[C@H]1C[C@H](N)[C@H](O)[C@H](C)O1	GM 07492	pIC50	5.47

Below: the item to evaluate.
Incoming: Please give the documented pIC50 of COc1ccc(/C=C/c2nc(NCCCN(C)C)c3ccccc3n2)cc1
Outgoing: 4.91

----------
Endpoint: melting point

Use these answered entries as a reference point.
Sample Smiles	melting point
Oc1c(Cl)cc(Cl)c2ccc(C=Cc3ccccc3Cl)nc12	205 to 210 °C
CCOc1ccc(C=Cc2ccc3c(Cl)cc(Cl)c(O)c3n2)cc1	156 to 158 °C

Incoming: Please give the documented melting point of CCOc1ccccc1C=Cc1ccc2c(Cl)cc(Cl)c(O)c2n1
Outgoing: 100 to 102 °C

----------
Tested on: HCT116 (p53-/-)
Experiment: MTS anti-proliferative assay, HCT116 (p53-/-)
Format: cell-based, human
Conditions: Homo sapiens, HCT-116; MTS, 72 h incubation, mean ± SD
Measured IC50, listed per entry for reference.

Compound	Endpoint	Obs Value
CCOc1ccc(C=Cc2ccc3ccccc3n2)cc1 [2a]	IC50	> 25 µM
CC(=O)Oc1cc(OC(C)=O)c(C=Cc2ccc3cccc(OC(C)=O)c3n2)c(OC(C)=O)c1 [10b]	IC50	> 25 µM

Incoming: Please give the documented IC50 of COc1cc(C=Cc2ccc3cccc(O)c3n2)cc(OC(C)=O)c1OC(C)=O [7b]
Outgoing: > 25 µM
